Tested on: Human lung carcinoma cell line A549
Test: MTT Cell Proliferation Assay, A549 cells
Format: cell-based
Settings: A549 cells, MTT, 72 hours post-treatment
pIC50: −log10 of the molar value.

smiles_structure	assayed_system	pIC50
[Cl][Ru-]([Cl])([Cl])[Cl].[Na+].c1ccc2[nH]ncc2c1.c1ccc2[nH]ncc2c1	Human lung carcinoma cell line A549	5.00
